Assign EC50 to each entry below.
system name: ZIKV envelope domain III ([..]), polyhistidine-AviTag, made in HEK-293-6E cells (Zika virus (KJ776791))
test details: ELISA on ZIKV EDIII (Table A)
details: remark: other sources report otherwise
# output: bare number, implied unit µg/mL

So what's the measured EC50 for this one? Z061 (BRA112_36) (antibody, V domains shown) VH: EVQLVESGGGVVQPGRSLRLSCAASGFTFSISTIHWVRQAPGKGLEYVVVISHDGNTKYYADSVKGRFIISRDNSKNTVFLQMNSLRPVDTAVYYCARGEVGYFDLWGRGTLVTVSS VL: EIVLTQSPATLSLSPGERATLSCRASQSVSSFLAWYQQKPGQPPRLLIYDASTRATGIPARFSGSGSGTDFTLTISSLEPEDFAVYYCQQRSNWPPITFGQGTRLEIK
0.311

So what's the measured EC50 for this one? Z059 (MEX84_p4-34) (antibody, V domains shown) VH: EVQLVQSGAEVKTPGSSVKVSCKTSGGTFSNFAITWVRQAPGQGLEWMGGIIPLFGITNYTQKFQGRVTITTDESKTTAYMDLSGLRSEDTAVYFCARGRDSSGRLLDHWGQGTLVTVSS VL: EIVMTQSPATLSVSPGERATLSCRASQTVNRNLAWYQQKPGQAPRLLIYAASARATGVPARFSGSGSGTEFTLTISSLQSEDFVVYYCQQYNNWPPLTFGGGTKLEIK
0.61

So what's the measured EC50 for this one? Z062 (BRA112_70) (antibody, V domains shown) VH: EVQLVESGGGVVQPGRSLRLSCAASGFSFSSHAMYWVRQAPGKGLEWVAIVSYDGSTKNYADSVKGRFTISRDNSKNTIYLHLNSLRAEDTAVYFCAREVDGIYGYLHYWGQGTLVTVSS VL: EIVLTQSPATLSLSPGERATLSCRARQNVRNFLAWYQQKPGQAPRLLIYDASNRATDIPARFSGSGSGTDFTLTISSLEPEDFAVYYCQQRSYSITFGQGTRLEIK
0.208

So what's the measured EC50 for this one? Z011 (MEX105_15) (antibody, V domains shown) VH: EVQLLESGGGLVQPGGSLRLSCAASGFTFRTYAMSWVRQPPGKGLEWVSSISAREDSTYFAASVRGRFTISRDNSKNTLYLQMNNLRAEDTALYYCAKDRLQLGVGELYESWGQGTLVTVSS VL: DIQMTQSPSTLSASVGDRVTITCRASQNINSWLAWYQQKPGKAPKLLIYMASSLQSGVPSRFSGSGSGTEFTLTVSSLQPDDFATYYCQHYHSYPWTFGQGTKVEIK
0.038

So what's the measured EC50 for this one? Z007 (MEX105_50) (antibody, V domains shown) VH: EVQLLESGGGLVRPGGSLRLSCTASGFTFRRYAMAWVRQAPGKGLEWVSLIYDGDDSTYYAKSVKGRFAISRDNSKNTLSLQMNSLRAEDTAVYYCVKDRDNGWSSIVDWGQGTLVTVSS VL: DIQMTQSPSTLSASVGDRVTITCRASHSISGWLAWYQQKPGKAPKLLIYQASILESGVPSRFSGSGSGTEFTLTIGSLQPEDFATYFCQQYSTFWTFGQGTKVEIK
0.0346

So what's the measured EC50 for this one? Z050 (BRA138_28) (antibody, V domains shown) VH: QVQLVQSGAEVKKPGSSVKVSCKAPGGTFSRYSIAWVRQAPGQGLEWMGGINPTFTTPNYAQKFQGRVTITADESTNTAYLDLSSLRSEDTAVYYCARFRYYYESGGYSDASPYYLDYWGQGTLVTVSS VL: EIVLTQSPATLSLSPGERVTLSCRASQSVSSYLAWYQQKPGQAPRLLIYDASNRATGIPARFTGSGSGTDFTLTISSLEPEDFAVYYCQQRSNWPLTFGGGTKVEIK
0.0303

So what's the measured EC50 for this one? Z003 (MEX18_58) (antibody, V domains shown) VH: EVQLLESGGGLVQPGGSLRLSCATSGFTFTTFAMSWVRQAPGKGLEWVSSISGADDSTYYAASVKGRFTISRDNSRSTLFLQMNSLRAEDTAVYYCAKDRGPRGVGELFDSWGQGTLVTVSS VL: DIQMTQSPSTLSASVGDRVTITCRASQSISKWLAWYQQKPGKAPRLLIYTTSTLKSGVPSRFSGSGSGTEFTLTISSLQPDDFATYYCQHFFSVPWTFGQGTKVEIK
0.0255

So what's the measured EC50 for this one? Z055 (MEX84_p4-61) (antibody, V domains shown) VH: EVQLVQSGAEVKKPGASVKVSCKASGYTFSGYYIHWLRQAPGQGLEWMGWINSNSGGADSGPRFHGRVTMTRDTSINTAYLELTNLRSDDTAVYYCARRTYYDTRFPYWYFDLWGRGTLVTVSS VL: AIRMTQSPSSLSASVGDRVTITCRASQDIGSYLNWYQQKPGKAPNVLISAASTLQSGVPSRISGIGSGTDFTLTISSLQPEDFATYYCQQSLSAPYTFGQGTKLEIK
1.88

So what's the measured EC50 for this one? Z009 (MEX105_64) (antibody, V domains shown) VH: EVQLLESGGGLVRPGGSLRLSCTASGFTFRRYAMAWVRQAPGKGLEWVSLIYNGDDSTYYAESVKGRFTVSRDNSQNTLSLQMNSLRAEDTAIYYCVRDRDNGWSSIVDWGQGTLVTVSS VL: DIQMTQSPSTLSASVGDRVTITCRASRTIGSWLAWYQQKPGKAPKLLIYQASILEGGVPSRFSGSVSGTEFTLTIRSLQPEDFATYFCQQYSTFWTFGQGTKVEIK
0.0284

So what's the measured EC50 for this one? Z016 (MEX84_p2-55) (antibody, V domains shown) VH: QVQLVQSGAEVKKPGASVKLSCKASGYTFTSYYVHWVRQAPGQGLEWMGIINPGNNFVSFAQNFYDRATMTRDTSTNTVYMELTNLQSEDTAVYYCARTLVAPSAQSMYYFDFWGQGTLVTVSS VL: EIVLTQSPGTLSLSPGERGTLSCRASQYITTGHFAWYQQKPGRAPRLLIYGASVRATGVPDRFSGSGAETDFTLTISRLDPEDVGVYYCQQYGSSPVTFGPGTKVDIK
0.0724

These data points were gathered from patent US20220306729A1.
